System: HaCaT
Assay: Antiproliferative activity against human HaCaT cells assessed as cell viability by MTT assay
Assay type: functional, cell-based
recorded metric: IC50 (nM)
Enter your answer as a number in nM; do not include the unit.

See these solved cases before continuing.
> print(dat)
                                 compound  units  result.value
1    COc1cc(/C=C\c2cc3ccccc3s2)cc(OC)c1OC     nM            16
2  COc1ccc(/C=C\c2cc(OC)c(OC)c(OC)c2)cc1O     nM             1

Consider now this further compound.
Provide IC50, tested on HaCaT, for "COc1cc2c(c(OC)c1OC)-c1ccc(OC)c(=O)cc1[C@@H](NC(C)=O)CC2" . 12

###

Test: Inhibition of sheep brain tubulin assembly compound incubated for 10 mins at 37 degC followed by 5 mins incubation at 0 degC by turbidimetry
Parameters: species or system Ovis aries
Flag rule - IC50 less than 8 µM flags rule met; the remaining entries get rule not met.

Answered cases to consult:
> print(dat)
                                   compound           cat
1      COc1cc(/C=C/c2cc3ccccc3s2)cc(OC)c1OC  rule not met
2      COc1cc(/C=C\c2cc3ccccc3o2)cc(OC)c1OC  rule not met
3   COc1cc(/C=C\c2cc3ccccc3[nH]2)cc(OC)c1OC  rule not met
4  COc1cc([C@@H]2c3cc4c(cc3C[C@H]3COC(=O)[C@@H]32)OCO4)cc(OC)c1OC      rule met

Proceed to the following item.
Dear colleague, could you confirm whether IC50 of "COc1cc(/C=C\c2cc3ccccc3s2)cc(OC)c1OC" falls below 8 µM? Thanks. rule met
